Values of pKi for Histone deacetylase 2 (Homo sapiens), collected from a number of published sources:
Scale note: pKi = -log10(concentration in M).

INSERT INTO assay_data (molecule, test_readout, number) VALUES
  ('O=C(/C=C/c1ccc2c(c1)nc(CCc1ccccc1)n2CCN1CCCCC1)NO', 'pKi', 7.41),
  ('CCC(C)Oc1ccc(/C=C/C(=O)/C=C(O)/C=C/c2ccc(OC(C)CC)c(OC)c2)cc1OC (stereo unspecified)', 'pKi', 5.13),
  ('O=C(CCCCCCC(=O)Nc1ccc([C@H]2O[C@@H](CSc3nc(-c4ccccc4)c(-c4ccccc4)o3)C[C@@H](c3ccc(CO)cc3)O2)cc1)NO', 'pKi', 5.93),
  ('CCCCCc1nc2cc(/C=C/C(=O)NO)ccc2n1CCNC(C)C', 'pKi', 7.85),
  ('COc1cc(/C=C/C(=O)/C=C(O)/C=C/c2ccc(OCC(=O)O)c(OC)c2)ccc1OCC(=O)O', 'pKi', 5.40);

Entry O=C(/C=C/c1ccc(CONC(=O)c2ccc3ccccc3n2)cc1)NO : pKi on Histone deacetylase 2 (Homo sapiens) = 7.15

Value (pKi, Histone deacetylase 2 (Homo sapiens)) for record CCC(C)Oc1ccc(/C=C/C(O)=C/C(=O)/C=C/c2ccc(O)c(OC)c2)cc1 (stereo unspecified) = 5.97

# Nc1ccc(-c2cccs2)cc1NC(=O)c1ccc(-c2cn(CCc3ccccn3)nn2)cc1 with Histone deacetylase 2 (Homo sapiens): pKi is 8.01

Kindly note: Histone deacetylase 2 (Homo sapiens), CCCNNC(=O)c1ccc(CNC(=O)/C=C/c2ccccc2)cc1 , pKi value reported: 6.99

pKi on Histone deacetylase 2 (Homo sapiens) for C=C[C@@H](O)[C@@H]1O[C@H]1/C=C/[C@@H]1O[C@H]1[C@@H](C)O is 4.90

Value sought: pKi, system Histone deacetylase 2 (Homo sapiens), item CCCCCCc1nc2cc(/C=C/C(=O)NO)ccc2n1CCNC(C)C . Result: 7.74
